In this section we review reported pIC50 values for a set of compounds.
# ASSAY TARGET: KRAS-G12C (C51S/C80L/C118S) (Homo sapiens, UniProt P01116, C118S/C51S/C80L/G12C)
# Sequence (P01116 with tags, fused parts or gaps isoform P01116-2 G12C/C51S/C80L/C118S): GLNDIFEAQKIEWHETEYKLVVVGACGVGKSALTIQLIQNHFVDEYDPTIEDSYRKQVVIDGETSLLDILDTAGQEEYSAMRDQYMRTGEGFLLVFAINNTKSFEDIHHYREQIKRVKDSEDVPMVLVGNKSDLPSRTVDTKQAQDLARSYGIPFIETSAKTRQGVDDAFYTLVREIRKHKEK
# TEST METHOD NOTES: SOS-catalyzed nucleotide exchange assay (Procedure A, TR-FRET), KRAS-G12C
# Type: biochemical
# ASSAY SETUP: nucleotide exchange, Procedure A; read-out: KRAS G12C GNE IC50
pIC50: −log10 of the molar value.

COMPOUND	pIC50
CCOc1c(C)cc2[nH]ncc2c1-c1nccc2c1sc1nc(OC[C@@]34CCCN3C[C@H](F)C4)nc(N3CCOC[C@@](C)(O)C3)c12	7.44
Cc1cc2[nH]ncc2c(-c2nccn3c2cc2nc(OC[C@]4(CN(C)C)CC4(F)F)nc(N4CCOC[C@@](C)(O)C4)c23)c1C1CC1	7.36
Cc1nc2[nH]ncc2c(-c2nccc3c4c(N5CCOC[C@@](C)(O)C5)nc(OC[C@@]56CCCN5C[C@H](F)C6)nc4n(C)c23)c1C(F)(F)F	6.63
CN1CCC[C@@]2(COc3nc(N4CCOC[C@@](C)(O)C4)c4c(n3)sc3c(-c5c(C6(F)CC6)c(Cl)cc6[nH]ncc56)nccc34)CCC[C@@H]12	7.06
Cc1cc2[nH]nc(C#N)c2c(-c2nccc3c2sc2nc(OC[C@@]45CCCN4C[C@H](F)C5)nc(N4CCOC[C@@](C)(O)C4)c23)c1C(F)(F)F	6.13
Cc1cc2[nH]ncc2c(-c2nccc3c2sc2nc(OC[C@@]45CCCN4C[C@H](F)C5)nc(N4CCOC(CO)C4)c23)c1C(F)(F)F (stereo partly drawn)	7.11
C[C@@]1(O)COCCN(c2nc(OC[C@@]34CCCN3C[C@H](F)C4)nc3sc4c(-c5c(C6CCC6)c(Cl)cc6[nH]ncc56)nccc4c23)C1	7.69
Cc1cc2[nH]ncc2c(-c2nccc3c2sc2nc(OC[C@@]45CCCN4C[C@H](F)C5)nc(N4CCOC[C@@](C)(O)C4)c23)c1-c1ccco1	7.11
Cc1cc2[nH]ncc2c(-c2nccc3c4c(N5CCOC[C@@](C)(O)C5)nc(OC[C@@]56CCCN5C[C@H](F)C6)nc4n(C)c23)c1C(F)F (single isomer, unassigned)	7.52
CCC1CCc2cc3[nH]ncc3c(-c3nccc4c3sc3nc(OC[C@@]56CCCN5C[C@H](F)C6)nc(N5CCOC[C@@](C)(O)C5)c34)c21 (stereo partly drawn)	7.81
Cc1cc2[nH]ncc2c(-c2nccc3c2sc2nc(OC[C@@]45CCCN4C[C@H](F)C5)nc(NC4CNC(=O)C4)c23)c1C(F)(F)F (stereo partly drawn)	6.92
C[C@@]1(O)COCCN(c2nc(OC[C@@]34CCCN3C/C(=C\F)C4)nc3sc4c(-c5c(C6(F)CC6)c(Cl)cc6[nH]ncc56)nccc4c23)C1	7.63

---

# ASSAY TARGET: KRAS-G13D (Homo sapiens, UniProt P01116, G13D)
# Sequence (P01116 with tags, fused parts or gaps isoform P01116-2 G13D): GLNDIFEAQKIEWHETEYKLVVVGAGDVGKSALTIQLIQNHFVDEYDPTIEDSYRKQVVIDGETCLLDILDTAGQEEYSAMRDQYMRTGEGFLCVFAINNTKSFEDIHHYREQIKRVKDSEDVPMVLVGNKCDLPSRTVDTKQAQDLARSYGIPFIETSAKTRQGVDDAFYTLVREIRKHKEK
# TEST METHOD NOTES: SOS-catalyzed nucleotide exchange assay (Procedure A, TR-FRET), KRAS-G13D
# Type: biochemical
# ASSAY SETUP: nucleotide exchange, Procedure A; read-out: KRAS G13D GNE IC50
Recorded measurements of IC50, one per entry

MOLECULE	ASSAY TARGET	IC50 (µM)
C=C1CN2CCC[C@@]2(COc2nc(N3CCOC[C@@](C)(O)C3)c3c(n2)sc2c(-c4c(C5CC5)c(Cl)cc5[nH]ncc45)nccc23)C1	KRAS-G13D (Homo sapiens, UniProt P01116, G13D)	0.00548
C[C@@]1(O)COCCN(c2nc(OC[C@@]34CCCN3C/C(=C\F)C4)nc3sc4c(-c5c(C6(F)CC6)c(C(F)(F)F)cc6[nH]ncc56)nccc4c23)C1	KRAS-G13D (Homo sapiens, UniProt P01116, G13D)	0.0226
Cc1cc2[nH]ncc2c(-c2nccc3c2sc2nc(OC[C@@]45CCCN4C[C@H](F)C5)nc(N4CCOC[C@@](C)(O)C4)c23)c1-c1cccs1	KRAS-G13D (Homo sapiens, UniProt P01116, G13D)	0.337
Cc1cc2[nH]nc(C#N)c2c(-c2nccc3c4c(N5CCOC[C@@](C)(O)C5)nc(OC[C@@]56CCCN5C[C@H](F)C6)nc4n(C)c23)c1C(F)(F)F (single isomer, unassigned)	KRAS-G13D (Homo sapiens, UniProt P01116, G13D)	0.43
Cc1cc2[nH]ncc2c(-c2nccc3c2sc2nc(OC[C@@]45CCCN4C[C@H](F)C5)nc(N4CCOC[C@@](C)(O)C4)c23)c1OC(F)(F)Cl	KRAS-G13D (Homo sapiens, UniProt P01116, G13D)	0.0204
Cc1cc2[nH]ncc2c(-c2nccc3c2sc2nc(OC[C@@]45CCCN4C[C@H](F)C5)nc(NC4CCOC4)c23)c1C(F)(F)F (some centres unmarked)	KRAS-G13D (Homo sapiens, UniProt P01116, G13D)	1.25
C[C@@]1(O)COCCN(c2nc(OC[C@@]34CCCN3C[C@H](F)C4)nc3sc4c(-c5c(C6CC6)c(Cl)cc6[nH]ncc56)nccc4c23)C1	KRAS-G13D (Homo sapiens, UniProt P01116, G13D)	0.0107
Cc1cc2[nH]ncc2c(-c2nccc3c2sc2nc(OC[C@@]45CCCN4C[C@H](F)C5)nc(NC4CNC(=O)C4)c23)c1C(F)(F)F (some centres unmarked)	KRAS-G13D (Homo sapiens, UniProt P01116, G13D)	0.409
Cc1cc2[nH]ncc2c(-c2nccc3c4c(N5CCOC[C@@](C)(O)C5)nc(OC[C@]5(CN(C)C)CC5(F)F)nc4n(C)c23)c1C(F)F (single isomer, unassigned)	KRAS-G13D (Homo sapiens, UniProt P01116, G13D)	0.0683
C#Cc1c(F)ccc2cc(O)cc(-c3nccc4c5c(N6CCOC[C@@](C)(O)C6)nc(OC[C@@]67CCCN6C[C@H](F)C7)nc5n(C)c34)c12	KRAS-G13D (Homo sapiens, UniProt P01116, G13D)	0.00266
Cc1n[nH]c2cc(Cl)c(C(F)F)c(-c3nccc4c5c(N6CCOC[C@@](C)(O)C6)nc(OC[C@@]67CCCN6C[C@H](F)C7)nc5n(C)c34)c12 (single isomer, unassigned)	KRAS-G13D (Homo sapiens, UniProt P01116, G13D)	4.86
Cc1cc2[nH]ncc2c(-c2nccc3c2sc2nc(OC[C@@]45CCCN4C[C@H](F)C5)nc(N4CCOC[C@@](C)(O)C4)c23)c1C1=CCCC1	KRAS-G13D (Homo sapiens, UniProt P01116, G13D)	0.172
C[C@@]1(O)COCCN(c2nc(OC[C@@]34CCCN3C[C@H](F)C4)nc3sc4c(-c5c(C(F)F)ccc6[nH]ncc56)nccc4c23)C1	KRAS-G13D (Homo sapiens, UniProt P01116, G13D)	2.31
CCC1c2c(cc3[nH]ncc3c2-c2nccc3c2sc2nc(OC[C@@]45CCCN4C/C(=C\F)C5)nc(N4CCOC[C@@](C)(O)C4)c23)CC1(F)F (single isomer, unassigned)	KRAS-G13D (Homo sapiens, UniProt P01116, G13D)	0.00473
C=C(F)c1c(C(F)(F)F)cc2[nH]ncc2c1-c1nccc2c1sc1nc(OC[C@@]34CCCN3C[C@H](F)C4)nc(N3CCOC[C@@](C)(O)C3)c12	KRAS-G13D (Homo sapiens, UniProt P01116, G13D)	0.0104
Cc1cc2[nH]ncc2c(-c2nccc3c2sc2nc(OC[C@]4(CN(C)C)CC4(F)F)nc(N4CCOC[C@@](C)(O)C4)c23)c1C(F)(F)F	KRAS-G13D (Homo sapiens, UniProt P01116, G13D)	0.0752
CCc1c(F)ccc2cc3[nH]ncc3c(-c3nccc4c3sc3nc(OC[C@@]56CCCN5C[C@H](F)C6)nc(N5CCOC[C@@](C)(O)C5)c34)c12	KRAS-G13D (Homo sapiens, UniProt P01116, G13D)	0.0101
C[C@@]1(O)COCCN(c2nc(OC[C@@]34CCCN3C[C@H](F)C4)nc3sc4c(-c5ccc(F)c6sc(N)c(C#N)c56)nccc4c23)C1	KRAS-G13D (Homo sapiens, UniProt P01116, G13D)	1.2
Cc1cc2[nH]ncc2c(-c2nccc3c2sc2nc(OC[C@@]45CCCN4C[C@H](F)C5)nc(N4CCC[C@@](C)(O)C4)c23)c1C(F)(F)F	KRAS-G13D (Homo sapiens, UniProt P01116, G13D)	0.204
Cc1cc2[nH]ncc2c(-c2ncnc3c2sc2nc(OC[C@@]45CCCN4C[C@H](F)C5)nc(N4CCOC[C@@](C)(O)C4)c23)c1C(F)(F)F	KRAS-G13D (Homo sapiens, UniProt P01116, G13D)	0.461
Cc1cc2[nH]ncc2c(-c2nccc3c2sc2nc(OC[C@@]45CCCN4C[C@H](F)C5)nc(N4CCOC[C@@](C)(O)C4)c23)c1C(F)(F)F	KRAS-G13D (Homo sapiens, UniProt P01116, G13D)	0.0586
Cc1nc2[nH]nc(C)c2c(-c2nccc3c4c(N5CCOC[C@@](C)(O)C5)nc(OC[C@@]56CCCN5C[C@H](F)C6)nc4n(C)c23)c1C(F)(F)F	KRAS-G13D (Homo sapiens, UniProt P01116, G13D)	5.38
C[C@@]1(O)COCCN(c2nc(OC[C@@]34CCCN3C/C(=C\F)C4)nc3sc4c(-c5c(C6CC6)c(Cl)cc6[nH]ncc56)nccc4c23)C1	KRAS-G13D (Homo sapiens, UniProt P01116, G13D)	0.0202

Numbers sourced from patent US20260176289A1.
